test system: production of CD69 by B lymphocytes in human whole blood; assay: CD69 Whole Blood Assay (CD69 Hu Blood FACS); type: cell-based; conditions: stimulated with goat F(ab')2 anti-human IgM, 20 hours, CD69 positive of CD20 positive cells, Table 2, unit inferred
measurement-label: CD69 Hu Blood FACS (IC70) (nM)

smiles-data | target-or-test-system | value-unit | endpoint-result
C[C@H]1CN(C2COC2)CCN1c1ccc(Nc2cc(-c3cc(F)cc(-n4ncc5c6c(sc5c4=O)CC(C)(C)C6)c3CO)cn(C)c2=O)nc1 | production of CD69 by B lymphocytes in human whole blood | nM | 34.9
C[C@H]1CN(C2COC2)CCN1c1ccc(Nc2cc(-c3cc(F)cc(-n4ncc5c(cc6n5CCCC6)c4=O)c3CO)cn(C)c2=O)nc1 | production of CD69 by B lymphocytes in human whole blood | nM | 51
C[C@H]1CN(C2COC2)CCN1c1ccc(Nc2cc(-c3cccc(-n4ncc5c6c(sc5c4=O)CCCC6)c3CO)cn(C)c2=O)nc1 | production of CD69 by B lymphocytes in human whole blood | nM | 35.4
C[C@H]1CN(C2COC2)CCN1c1ccc(Nc2cc(-c3cc(F)cc(N4CCn5c(cc6c5CC(C)(C)C6)C4=O)c3C(=O)O)cn(C)c2=O)nc1 | production of CD69 by B lymphocytes in human whole blood | nM | 5000
C[C@@H]1CN(c2ccc(Nc3cc(-c4cc(F)cc(N5CCc6c(cc7n6CCCC7)C5=O)c4CO)cn(C)c3=O)nc2)[C@@H](C)CN1C1COC1 | production of CD69 by B lymphocytes in human whole blood | nM | 57.1
CNC(=O)c1c(-c2cc(Nc3ccc(N4CCN(C5COC5)C[C@@H]4C)cn3)c(=O)n(C)c2)cc(F)cc1N1CCn2c(cc3c2CC(C)(C)C3)C1=O | production of CD69 by B lymphocytes in human whole blood | nM | 472
